experimentalSystem: Aβ42 (Homo sapiens, UniProt P05067)
Sequence (P05067 672-713): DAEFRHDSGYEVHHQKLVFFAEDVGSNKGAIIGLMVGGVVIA
protocolNotes: Th-T (thioflavin-T) assay of Aβ42 aggregation
Assay type: biochemical
testParameters: Supplementary Fig. 47 source data; measurement M48 of time course
outcomeMeasure: Th-T fluorescence, mean of three wells
Field format: numeric only.

Some solved entries appear below for comparison.
compound | resultNumber
C=C1CC[C@H]2[C@]3(C)C[C@H](C=C(C)C)O[C@H]3CC[C@]2(C)[C@@H]1Cc1c(O)c(C)c(C)oc1=O | 3.117
C=C1CC[C@H]2[C@]3(C)C[C@@H](C=C(C)C)O[C@H]3CC[C@]2(C)[C@@H]1Cc1c(O)c(C)c(C)oc1=O | 2.673
C=C1CC[C@@H]2[C@](C)(CC[C@H]3O[C@H](C=C(C)C)C[C@@]23C)[C@@H]1Cc1c(O)c(C)c(C)oc1=O | 3.099
C=C1CCC2C(C)(CC(=O)C=C(C)C)C(O)CCC2(C)C1Cc1c(OC)oc(C)c(C)c1=O (stereo not drawn) | 3.764
C=C1CCC2C(C)(CC(=O)C=C(C)C)C(O)CCC2(C)C1Cc1c(OC)oc(CO)c(C)c1=O (stereo not drawn) | 3.567

Q: Reported Th-T fluorescence, mean of three wells, compound C=C1CC[C@H]2[C@]3(C)C[C@H](C=C(C)C)O[C@H]3CC[C@]2(C)[C@@H]1Cc1c(OC)oc(CO)c(C)c1=O : ____
Ans: 3.912

Q: Recorded Th-T fluorescence, mean of three wells for C=C1CCC2C3(C)CC(C=C(C)C)OC3CCC2(C)C1Cc1c(OC)oc(C)c(C)c1=O (stereo not drawn) , please?
Ans: 4.03

Q: Which measured Th-T fluorescence, mean of three wells value corresponds to C=C1CCC2C(C)(CCC=C(C)C)C(=O)CCC2(C)C1Cc1c(O)c(C)c(C)oc1=O (stereo not drawn) ?
Ans: 2.202

Q: Could you tell me which Th-T fluorescence, mean of three wells is on file for C=C1CCC2C(C)(CC(=O)C=C(C)C)C(O)CCC2(C)C1Cc1c(O)c(C)c(C)oc1=O (stereo not drawn) ?
Ans: 3.575

Q: Looking for the measured Th-T fluorescence, mean of three wells of CC(C)=CCC/C(C)=C/CC/C(C)=C/CC/C(C)=C/Cc1c(O)c(C)c(C)oc1=O , can you help?
Ans: 2.874

Q: Please give the measured Th-T fluorescence, mean of three wells for this compound: C=C1CC[C@H]2[C@]3(C)C[C@@H](C=C(C)C)O[C@H]3CC[C@]2(C)[C@@H]1Cc1c(OC)oc(CO)c(C)c1=O
Ans: 3.489

Q: GET /values?readout=Th-T fluorescence, mean of three wells&item= C=C1CC[C@H]2[C@]3(C)C[C@H](C=C(C)C)O[C@H]3CC[C@]2(C)[C@@H]1Cc1c(OC)oc(C)c(C)c1=O
Ans: 4.146
